Target: human RNMT-RAM complex (Homo sapiens)
Sequence (O43148 whole entry): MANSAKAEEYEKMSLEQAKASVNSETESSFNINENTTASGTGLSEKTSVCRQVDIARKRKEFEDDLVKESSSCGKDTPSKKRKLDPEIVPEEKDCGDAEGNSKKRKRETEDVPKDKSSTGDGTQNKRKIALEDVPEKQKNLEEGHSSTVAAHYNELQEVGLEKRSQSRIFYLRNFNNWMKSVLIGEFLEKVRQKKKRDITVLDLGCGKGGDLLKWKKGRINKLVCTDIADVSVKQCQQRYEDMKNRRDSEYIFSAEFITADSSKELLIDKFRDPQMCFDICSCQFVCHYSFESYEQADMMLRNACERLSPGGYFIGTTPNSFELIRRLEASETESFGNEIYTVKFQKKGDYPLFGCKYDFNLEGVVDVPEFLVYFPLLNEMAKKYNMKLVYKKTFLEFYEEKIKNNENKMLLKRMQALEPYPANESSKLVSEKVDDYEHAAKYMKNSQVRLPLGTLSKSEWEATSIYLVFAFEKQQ
Sequence (Q9BTL3 whole entry partner): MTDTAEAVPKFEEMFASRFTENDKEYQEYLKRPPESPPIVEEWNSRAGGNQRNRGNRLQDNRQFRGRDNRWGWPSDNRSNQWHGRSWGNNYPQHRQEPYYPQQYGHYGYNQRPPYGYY
Assay: Biochemical activity assay for the human RNMT-RAM complex (MTase-Glo)
Conditions: fit of concentration-response curve
Hi there, I'd appreciate the recorded hRNMT-RAM inhibition: Hill slope for every entry that follows.

*Q* Would you kindly share the measured hRNMT-RAM inhibition: Hill slope for COc1ccc(-c2ocnc2C(=O)Nc2ccc3oc(=O)n(CC(=O)N4CCCCC4)c3c2)cc1 [RU-0833661] ?
*A* 5.03

*Q* What about this compound? Cc1cc(C)c(C(=O)NCc2ccc(CNC(=O)c3ccc(O)c(C)c3)cc2)cn1 [RU-0834181]
*A* 0.346

*Q* What about this compound? C[C@@H](NC(=O)c1ccc(CNC(=O)c2ccc3[nH]ncc3c2)cc1)c1cccc(O)c1 [RU-0834179]
*A* 0.0614

*Q* What about this compound? O=C(Cn1cccc(-c2nc(-c3ccccc3)no2)c1=O)Nc1ccc(F)cc1F [RU-0833868]
*A* 3.14

*Q* What about this compound? CCn1nc(C)c(C(=O)NCCc2ccc(CNC(=O)c3ccc4[nH]ncc4c3)cc2)c1C [RU-0834081]
*A* 0.243

*Q* What about this compound? Cc1ccc(NC(=O)Cn2nnc3ccccc3c2=O)cc1S(=O)(=O)N1CCCCC1 [RU-0833928]
*A* 0.501

*Q* What about this compound? Cc1cc(C(=O)NCc2ccc(C(=O)NC(C)c3ccccc3C)nc2)ccc1O (centres unmarked) [RU-0834146]
*A* 86

*Q* What about this compound? Cc1cnc(C(C)NC(=O)c2ccc(CNC(=O)c3ccc(O)c(C)c3)cn2)nc1 (centres unmarked) [RU-0834184]
*A* 137

###

Target: ZIKV NS5 (Zika virus, UniProt Q32ZE1)
Sequence (Q32ZE1 2517-2781): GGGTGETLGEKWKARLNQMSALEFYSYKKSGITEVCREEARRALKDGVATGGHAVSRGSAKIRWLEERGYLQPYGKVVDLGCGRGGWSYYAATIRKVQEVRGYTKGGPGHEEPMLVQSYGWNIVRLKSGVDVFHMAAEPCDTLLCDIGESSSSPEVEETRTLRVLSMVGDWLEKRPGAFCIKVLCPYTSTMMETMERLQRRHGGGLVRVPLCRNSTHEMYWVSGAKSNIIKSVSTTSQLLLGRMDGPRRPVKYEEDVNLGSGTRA
Test: Biochemical activity assay for ZIKV NS5 MTase (MTase-Glo)
Details: fit of concentration-response curve
Hi there, I'd appreciate the recorded ZIKV NS5 inhibition: Hill slope for every entry that follows.
Keep it simple and answer with nothing but the number.

*Q* Form: Entry = O=C(Cn1cccc(-c2nc(-c3ccccc3)no2)c1=O)Nc1ccc(F)cc1F | System = ZIKV NS5 (Zika virus, UniProt Q32ZE1) | ZIKV NS5 inhibition: Hill slope = ____
*A* 0.969

*Q* What about this compound? Cc1nccc(C(=O)NCC2CCC3(CN(C(=O)c4cc(C)c5[nH]ncc5c4)C3)O2)c1C (stereo not drawn)
*A* 20.4

*Q* What about this compound? Cc1cccc(C(=O)NCC2CCC3(CN(C(=O)c4cc(C)c5[nH]ncc5c4)C3)O2)c1F (stereo not drawn)
*A* 1.95

*Q* What about this compound? Cc1cc(C(=O)NCc2ccc(C(=O)NC(C)c3ccccc3C)nc2)ccc1O (stereo not drawn)
*A* 10.6

*Q* What about this compound? Nc1ncnc2c1ncn2C1OC(CC(N)CCC(N)C(=O)O)C(O)C1O (stereo not drawn)
*A* 0.774

*Q* What about this compound? COc1ccc(-c2ocnc2C(=O)Nc2ccc3oc(=O)n(CC(=O)N4CCCCC4)c3c2)cc1
*A* 1.01

###

Target: ZIKV NS5 (Zika virus, UniProt Q32ZE1)
Assay: Biochemical activity assay for ZIKV NS5 MTase (MTase-Glo)
Details: fit of concentration-response curve
Hi there, I'd appreciate the recorded ZIKV NS5 inhibition: Hill slope for every entry that follows.
Keep it simple and answer with nothing but the number.

*Q* Would you kindly share the measured ZIKV NS5 inhibition: Hill slope for C[C@@H](NC(=O)c1ccc(CNC(=O)c2ccc3[nH]ncc3c2)cc1)c1cccc(O)c1 ?
*A* 1.12

*Q* What about this compound? Cc1cnc(C(=O)NCc2ccc(CNC(=O)c3ccc(O)c(C)c3)cc2)c(C)c1
*A* 0.157

*Q* What about this compound? Cc1ccc(NC(=O)Cn2nnc3ccccc3c2=O)cc1S(=O)(=O)N1CCCCC1
*A* -7.54

*Q* What about this compound? Cc1nc(C)c(C(=O)NCc2ccc(CNC(=O)c3ccc(O)c(F)c3)cc2)nc1C
*A* 1.81

*Q* What about this compound? CCn1nc(C)c(C(=O)NCCc2ccc(CNC(=O)c3ccc4[nH]ncc4c3)cc2)c1C
*A* 4.21

*Q* What about this compound? Cc1ccc(C)c(C(=O)NCC2CCC3(CN(C(=O)c4cc(C)c(O)c(C)c4)C3)O2)c1C (centres unmarked)
*A* 0.402

*Q* What about this compound? Cc1cc(C)c(C(=O)NCc2ccc(CNC(=O)c3ccc(O)c(C)c3)cc2)cn1
*A* 0.143

*Q* What about this compound? Cc1cnc(C(C)NC(=O)c2ccc(CNC(=O)c3ccc(O)c(C)c3)cn2)nc1 (centres unmarked)
*A* 1.19
